This collection of values is drawn from paper PMC7249047.

Run Description: Cytotoxicity MTT assay, 24 h, PAR cells
Type: cell-based
Conditions: mouse, parental (PAR) L5178 mouse T-cell lymphoma cells, read-out: Cytotoxic effect IC50
Listed next: entries and their corresponding IC50 at 24 h.
Reply with just the number (in µM).

In [3]: df
Out[3]:
                           structure_smiles  uom  observed_measurement
0  Cl.O=C1NC(N2CCOCC2)=N/C1=C\c1ccc(-c2ccccc2)cc1   µM                  53.5
1  Cl.NC1=N/C(=C\c2cc3ccccc3c3ccccc23)C(=O)N1CCCN1CCOCC1   µM                  19.6

Please examine the following record next.
Sample NC1=N/C(=C\c2c3ccccc3cc3ccccc23)C(=O)N1CCCN1CCOCC1 ; IC50 at 24 h observed: 28.6

====

Run Description: Cytotoxicity MTT assay, 24 h, MDR cells
Assay type: cell-based
Conditions: mouse; cytotoxic action on MDR with respect to PAR cells; read-out: SI (selectivity index), cytotoxicity
Below, each entry is listed alongside its reported selectivity ratio at 24 h.

Previously resolved entries follow.
Compound	selectivity ratio at 24 h
NC1=N/C(=C\c2ccc(-c3ccccc3)cc2)C(=O)N1CCN1CCOCC1 [Compound 14]	0.64
Cl.O=C1N=C(N2CCC(N3CCOCC3)CC2)N/C1=C\c1cccc(Oc2ccccc2)c1 [Compound 10]	0.85
Cl.O=C1N=C(N2CCC(N3CCOCC3)CC2)N/C1=C\c1ccc2c(c1)Cc1ccccc1-2 [Compound 12]	0.51
NC1=N/C(=C\c2c3ccccc3cc3ccccc23)C(=O)N1CCCN1CCOCC1 [Compound 19]	≤ 0.29

selectivity ratio at 24 h measured on Cl.O=C1N=C(N2CCC(N3CCOCC3)CC2)N/C1=C\c1ccc(Oc2ccccc2)cc1 [Compound 11] = 0.86

For record Cl.O=C1N=C(N2CCC(N3CCOCC3)CC2)N/C1=C\c1c2ccccc2cc2ccccc12 [Compound 13] the listed selectivity ratio at 24 h is ≤ 0.82

# selectivity ratio at 24 h (compound: Cl.NC1=N/C(=C\c2ccc3c(c2)Cc2ccccc2-3)C(=O)N1CCCN1CCOCC1 [Compound 18] ) is 0.58

Value of measured selectivity ratio at 24 h for the entry NC1=N/C(=C\c2cccc(Oc3ccccc3)c2)C(=O)N1CCCN1CCOCC1 [Compound 16] : 0.51

Entry Cl.NC1=N/C(=C\c2cc3ccccc3c3ccccc23)C(=O)N1CCCN1CCOCC1 [Compound 20] , selectivity ratio at 24 h reported as 0.79

====

// values below are reported melting point
Counter-ions that a name gives are not always drawn.

>>> df
                                   molecule     observable  observed_measurement
0  Cl.NC1=N/C(=C\c2ccc(-c3ccccc3)cc2)C(=O)N1CCCN1CCOCC1 [Compound 15]  melting point         248 to 252 °C
1  Cl.O=C1N=C(N2CCC(N3CCOCC3)CC2)N/C1=C\c1cccc(Oc2ccccc2)c1 [Compound 10]  melting point         289 to 292 °C

The recorded melting point for Cl.NC1=N/C(=C\c2ccc3c(c2)Cc2ccccc2-3)C(=O)N1CCCN1CCOCC1 [Compound 18] is 261 to 263 °C

response.value for Cl.NC1=N/C(=C\c2cc3ccccc3c3ccccc23)C(=O)N1CCCN1CCOCC1 [Compound 20] (field: melting point) = 238 to 240 °C

# melting point (molecule: Cl.O=C1N=C(N2CCC(N3CCOCC3)CC2)N/C1=C\c1c2ccccc2cc2ccccc12 [Compound 13] ) is 303 to 305 °C

Recorded melting point (molecule Cl.O=C1N=C(N2CCC(N3CCOCC3)CC2)N/C1=C\c1ccc(-c2ccccc2)cc1 [Compound 8] ): 267 to 269 °C

Per the records, this molecule ( Cl.O=C1N=C(N2CCN(CCN3CCOCC3)CC2)N/C1=C\c1ccc(-c2ccccc2)cc1 [Compound 9] ) has melting point equal to 305 to 307 °C

# molecule NC1=N/C(=C\c2ccc(-c3ccccc3)cc2)C(=O)N1CCN1CCOCC1 (as salt: hydrochloride) [Compound 14] ; its melting point = 266 to 270 °C

====

This listing pairs compounds with measured FAR Quotient (%).
Assay System: ABCB1 efflux pump (Homo sapiens)
Sequence (P08183 whole entry): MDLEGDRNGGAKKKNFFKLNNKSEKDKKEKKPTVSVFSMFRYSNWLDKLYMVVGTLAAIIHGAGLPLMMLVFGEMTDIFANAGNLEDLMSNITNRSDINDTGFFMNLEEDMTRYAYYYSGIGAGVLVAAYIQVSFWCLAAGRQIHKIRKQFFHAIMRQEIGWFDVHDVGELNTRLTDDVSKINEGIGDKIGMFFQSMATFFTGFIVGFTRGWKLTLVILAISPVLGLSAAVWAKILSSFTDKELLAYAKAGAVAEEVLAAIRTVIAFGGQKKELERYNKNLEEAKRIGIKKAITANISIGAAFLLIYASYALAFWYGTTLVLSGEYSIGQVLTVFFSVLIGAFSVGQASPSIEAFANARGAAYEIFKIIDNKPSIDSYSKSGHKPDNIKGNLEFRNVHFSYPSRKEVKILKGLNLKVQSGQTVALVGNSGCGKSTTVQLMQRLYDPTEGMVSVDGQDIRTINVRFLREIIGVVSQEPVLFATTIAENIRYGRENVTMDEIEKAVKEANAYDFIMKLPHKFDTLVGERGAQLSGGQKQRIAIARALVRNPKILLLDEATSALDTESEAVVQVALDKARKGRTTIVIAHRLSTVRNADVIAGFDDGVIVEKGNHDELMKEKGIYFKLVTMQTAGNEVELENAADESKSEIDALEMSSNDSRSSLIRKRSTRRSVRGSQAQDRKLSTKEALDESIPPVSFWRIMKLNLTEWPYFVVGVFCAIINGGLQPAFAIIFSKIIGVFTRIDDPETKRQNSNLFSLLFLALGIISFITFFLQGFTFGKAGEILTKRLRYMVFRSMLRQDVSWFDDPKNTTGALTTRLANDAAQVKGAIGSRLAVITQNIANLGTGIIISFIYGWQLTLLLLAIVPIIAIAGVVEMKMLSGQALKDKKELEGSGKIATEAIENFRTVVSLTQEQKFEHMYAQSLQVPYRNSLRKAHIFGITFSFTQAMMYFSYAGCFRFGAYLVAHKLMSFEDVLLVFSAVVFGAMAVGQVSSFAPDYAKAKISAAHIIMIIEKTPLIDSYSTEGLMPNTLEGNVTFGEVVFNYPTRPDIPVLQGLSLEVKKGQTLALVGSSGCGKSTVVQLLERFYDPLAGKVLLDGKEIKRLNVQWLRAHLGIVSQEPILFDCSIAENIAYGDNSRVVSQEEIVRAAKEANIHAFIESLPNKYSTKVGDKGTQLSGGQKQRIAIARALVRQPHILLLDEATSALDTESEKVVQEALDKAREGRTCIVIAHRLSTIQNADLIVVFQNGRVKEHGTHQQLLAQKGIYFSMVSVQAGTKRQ
Run Description: Rhodamine 123 accumulation assay (flow cytometry)
Conditions: concentration 2 µM; FAR of compound related to FAR of VER tested at 20 µM
The reply should contain only the number, in %.

Would you please look over these solved cases?
                           structure_smiles                      assay_system  observed_measurement
0  NC1=N/C(=C\c2cccc(Oc3ccccc3)c2)C(=O)N1CCCN1CCOCC1  ABCB1 efflux pump (Homo sapiens)                  7.09
1  Cl.O=C1N=C(N2CCC(N3CCOCC3)CC2)N/C1=C\c1ccc2c(c1)Cc1ccccc1-2  ABCB1 efflux pump (Homo sapiens)                  8.88
2  NC1=N/C(=C\c2ccc(-c3ccccc3)cc2)C(=O)N1CCN1CCOCC1  ABCB1 efflux pump (Homo sapiens)                  6.22
3  Cl.O=C1NC(N2CCOCC2)=N/C1=C\c1ccc(-c2ccccc2)cc1  ABCB1 efflux pump (Homo sapiens)                  7.31

ABCB1 efflux pump (Homo sapiens) data for Cl.NC1=N/C(=C\c2ccc(-c3ccccc3)cc2)C(=O)N1CCCN1CCOCC1 ; its FAR Quotient (%): 6.78

Per the reported ABCB1 efflux pump (Homo sapiens) data, Cl.O=C1N=C(N2CCC(N3CCOCC3)CC2)N/C1=C\c1ccc(Oc2ccccc2)cc1 has FAR Quotient (%) of 7.51

Summary line: Cl.O=C1N=C(N2CCC(N3CCOCC3)CC2)N/C1=C\c1cccc(Oc2ccccc2)c1 , ABCB1 efflux pump (Homo sapiens), reported FAR Quotient (%) = 6.92

Record for Cl.NC1=N/C(=C\c2ccc(Oc3ccccc3)cc2)C(=O)N1CCCN1CCOCC1 under target or system ABCB1 efflux pump (Homo sapiens): FAR Quotient (%) reported as 5.80

====

Run Description: Cytotoxicity MTT assay, 24 h, MDR cells
Type: cell-based
Conditions: mouse; cytotoxic action on MDR with respect to PAR cells; read-out: SI (selectivity index), cytotoxicity
Mark satisfied for selectivity ratio at 24 h under 0.8, not satisfied if at or over.

Compound	Class
COc1cccc2c1C(=O)c1c(O)c3c(c(O)c1C2=O)C[C@@](O)(C(=O)CO)C[C@@H]3O[C@H]1C[C@H](N)[C@H](O)[C@H](C)O1 [DOX, doxorubicin, reference compound]	satisfied
Cl.NC1=N/C(=C\c2ccc(-c3ccccc3)cc2)C(=O)N1CCCN1CCOCC1	not satisfied

Field: next compound
Please indicate whether the reported selectivity ratio at 24 h of Cl.O=C1NC(N2CCOCC2)=N/C1=C\c1ccc(-c2ccccc2)cc1 is strictly below 0.8.
not satisfied

====

Observable: melting point

Check out these entries, answers already filled in.
In [3]: df
Out[3]:
                                   compound     observable  observed_measurement
0  Cl.O=C1NC(N2CCOCC2)=N/C1=C\c1ccc(-c2ccccc2)cc1 [Compound 7]  melting point         248 to 252 °C
1  Cl.O=C1N=C(N2CCC(N3CCOCC3)CC2)N/C1=C\c1ccc2c(c1)Cc1ccccc1-2 [Compound 12]  melting point         274 to 276 °C

Now take the following compound into account.
// melting point lookup, compound = Cl.NC1=N/C(=C\c2ccc(Oc3ccccc3)cc2)C(=O)N1CCCN1CCOCC1 [Compound 17] , result: 210 to 212 °C

====

Run Description: Cytotoxicity MTT assay, 24 h, MDR cells
Assay type: cell-based
Conditions: mouse; cytotoxic action on MDR with respect to PAR cells; read-out: SI (selectivity index), cytotoxicity
Observable: selectivity ratio at 24 h
Lab note: write the figure by itself, no unit.

Solved entries (count: 2):
                           structure_smiles  observed_measurement
0  Cl.O=C1N=C(N2CCC(N3CCOCC3)CC2)N/C1=C\c1ccc(-c2ccccc2)cc1                  0.52
1  Cl.NC1=N/C(=C\c2ccc(Oc3ccccc3)cc2)C(=O)N1CCCN1CCOCC1                  0.92

# compound Cl.O=C1N=C(N2CCN(CCN3CCOCC3)CC2)N/C1=C\c1ccc(-c2ccccc2)cc1 ; its selectivity ratio at 24 h = 0.71
